# Measured target: pea PBGS (Pisum sativum, UniProt P30124)
# Sequence (P30124 69-398 limits assumed): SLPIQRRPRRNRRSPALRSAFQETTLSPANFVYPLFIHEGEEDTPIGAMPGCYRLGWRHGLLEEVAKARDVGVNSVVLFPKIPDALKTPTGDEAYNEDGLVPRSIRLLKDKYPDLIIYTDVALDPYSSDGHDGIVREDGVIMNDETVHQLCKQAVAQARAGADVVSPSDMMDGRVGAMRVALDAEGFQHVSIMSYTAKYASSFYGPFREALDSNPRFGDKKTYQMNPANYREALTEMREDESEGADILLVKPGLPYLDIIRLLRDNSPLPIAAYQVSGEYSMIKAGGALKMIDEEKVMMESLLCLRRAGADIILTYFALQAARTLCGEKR
# Protocol details: pea PBGS activity assay (inhibition, protein concentration dependent specific activity)
# Type: biochemical
# Parameters: made in house
# Assay context: 0.03 μM pea PBGS; morphlock-1 0.1 μM to 0.1 mM; 30 minutes at 37° C. prior to assay; read-out: apparent IC50 of morphlock-1 inhibition of pea PBGS
Property: IC50 (nM)
The response must be a number in nM with no trailing unit.

Request the reported IC50 associated with O=C1Nc2ccc(S(=O)(=O)NCC(O)c3ccc([N+](=O)[O-])cc3)c3cccc1c23 (stereo not shown) 1200

---

# Measured target: pea PBGS (Pisum sativum, UniProt P30124, C394A)
# Construct: made in house
# Sequence (P30124 69-398 C394A): as the sequence (P30124 69-398 limits assumed) above, with C326A counted along it
# Protocol details: native PAGE gel shift of pea PBGS octamer/hexamer equilibrium
# Format: biochemical
# Assay context: 50 μg/ml (1.4 μM subunit) pea PBGS and 1 mM ALA, silver stain; read-out: apparent IC50, native PAGE
Property: IC50

Request the reported IC50 associated with O=C1Nc2ccc(S(=O)(=O)NCC(O)c3ccc([N+](=O)[O-])cc3)c3cccc1c23 (stereo not shown) ~100 µM

---

# Measured target: UniProt:P30124
# Protocol details: pea PBGS activity assay (inhibition, protein concentration dependent specific activity)
# Assay type: biochemical
# Parameters: made in house
Property: IC50

Request the reported IC50 associated with O=C(/C=C/c1ccc(O)c(O)c1)O[C@H](Cc1ccc(O)c(O)c1)C(=O)O [rosmarinic acid, reference compound] ~63 µM

---

# Measured target: pea PBGS (Pisum sativum, UniProt P30124, C394A)
# Construct: made in house
# Protocol details: native PAGE gel shift of pea PBGS octamer/hexamer equilibrium
# Format: biochemical
# Assay context: non-equilibrium conditions, 1 mg/ml (~28 μM subunits) pea PBGS; read-out: observed IC50 in native PAGE analyses
Property: IC50

Request the reported IC50 associated with O=C1Nc2ccc(S(=O)(=O)NCC(O)c3ccc([N+](=O)[O-])cc3)c3cccc1c23 (stereo not shown) [morphlock-1] ~500 µM
